Reported Top (MFI) is given for each of the following binders.
Target: cynomolgus LIV-1 (cynomolgus, UniProt A0A2K5WH46 30-741)
Sequence (A0A2K5WH46 entry or part of it): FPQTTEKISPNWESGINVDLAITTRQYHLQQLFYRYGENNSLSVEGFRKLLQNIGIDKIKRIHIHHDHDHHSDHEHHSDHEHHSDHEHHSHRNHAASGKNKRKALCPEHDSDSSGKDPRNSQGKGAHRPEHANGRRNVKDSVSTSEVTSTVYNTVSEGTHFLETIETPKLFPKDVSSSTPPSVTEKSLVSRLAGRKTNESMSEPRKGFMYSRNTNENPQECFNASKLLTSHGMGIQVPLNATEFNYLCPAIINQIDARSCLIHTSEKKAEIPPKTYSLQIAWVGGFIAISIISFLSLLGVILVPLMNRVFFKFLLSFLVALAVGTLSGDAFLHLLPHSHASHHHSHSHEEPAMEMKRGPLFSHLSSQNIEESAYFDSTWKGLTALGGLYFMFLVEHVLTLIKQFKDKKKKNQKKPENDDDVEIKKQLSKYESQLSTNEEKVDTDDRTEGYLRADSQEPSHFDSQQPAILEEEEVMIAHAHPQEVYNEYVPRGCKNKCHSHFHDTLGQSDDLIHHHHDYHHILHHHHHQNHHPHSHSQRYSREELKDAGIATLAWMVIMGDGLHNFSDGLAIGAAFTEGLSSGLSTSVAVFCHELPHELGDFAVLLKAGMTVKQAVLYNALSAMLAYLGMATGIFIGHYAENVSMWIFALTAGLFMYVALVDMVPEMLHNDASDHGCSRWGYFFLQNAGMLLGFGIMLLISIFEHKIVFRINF
Test: FACS, HEK293/Cyno_LIV-1 cells
Enter your answer as a number in MFI; do not include the unit.

>>> reported_result("5D6B10.Z10 (antibody, V domains shown) VH: QVQLQESGPGLVKPSGTLSLTCAVSGFSLTTYGIHWVRQSPGKGLEWLGVIWTGGTTDYNAAFISRLTISKDKSKNQVSLKLSSVTAADTAVYYCARGPSSYWGQGTLVTVSS VL: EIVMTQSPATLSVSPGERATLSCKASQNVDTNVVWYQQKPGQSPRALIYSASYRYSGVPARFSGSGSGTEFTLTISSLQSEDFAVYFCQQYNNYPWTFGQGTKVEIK")
25800
>>> reported_result("5D6B10.Z12 (antibody, V domains shown) VH: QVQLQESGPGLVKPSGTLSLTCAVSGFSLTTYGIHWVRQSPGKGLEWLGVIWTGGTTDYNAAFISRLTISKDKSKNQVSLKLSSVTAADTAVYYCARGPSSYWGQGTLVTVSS VL: DIVMTQSPATLSVSPGERVTVSCKASQNVDTNVVWYQQKPGQSPRALIHSASYRYSGVPDRFSGSGSGTDFTLTISSVQSEDFAVYFCQQYNNYPWTFGGGTKLEIK")
24900
>>> reported_result("5D6B10.Z5 (antibody, V domains shown) VH: QVQLVESGGGVVQPGRSLRLSCTVSGFSLTTYGIHWVRQSPGKGLEWLGVIWTGGTTDYNAAFISRLTISKDNSKSTLYFQMNSLRAEDTAVYYCARGPSSYWGQGTLVTVSS VL: EIVMTQSPATLSVSPGERATVSCKASQNVDTNVVWYQQKPGQSPRALIHSASYRYSGVPDRFSGSGSGTDFTLTISSLQSEDFAVYFCQQYNNYPWTFGQGTKVEIK")
12400

Problem: Please look up its Top (MFI): 5D6B10.Z13 (antibody, V domains shown) VH: QVQLQQSGPGLVKPSGTLSLTCTVSGFSLTTYGIHWVRQSPGKGLEWLGVIWTGGTTDYNAAFISRLTISKDKSKNQVFFKMSSLTAADTAVYYCARGPSSYWGQGTLVTVSS VL: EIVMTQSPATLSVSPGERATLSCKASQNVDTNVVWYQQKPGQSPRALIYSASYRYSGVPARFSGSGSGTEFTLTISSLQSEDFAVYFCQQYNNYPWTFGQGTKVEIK
Result: 26300

Problem: May I ask what Top (MFI) has been recorded for 5D6B10.Z3 (antibody, V domains shown) VH: QVQLVESGGGVVQPGRSLRLSCAVSGFSLTTYGIHWVRQAPGKGLEWLAVIWTGGTTDYNAAFISRFTISKDNSKSTLYLQMNSLRAEDTAVYYCARGPSSYWGQGTLVTVSS VL: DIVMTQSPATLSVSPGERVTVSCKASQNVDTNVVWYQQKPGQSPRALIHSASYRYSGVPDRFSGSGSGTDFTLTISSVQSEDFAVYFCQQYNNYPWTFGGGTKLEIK ?
Result: 17200

Problem: For 5D6B10.Z8 (antibody, V domains shown) VH: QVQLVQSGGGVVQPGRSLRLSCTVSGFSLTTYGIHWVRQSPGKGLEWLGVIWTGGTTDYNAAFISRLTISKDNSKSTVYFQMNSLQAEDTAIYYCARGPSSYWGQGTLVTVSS VL: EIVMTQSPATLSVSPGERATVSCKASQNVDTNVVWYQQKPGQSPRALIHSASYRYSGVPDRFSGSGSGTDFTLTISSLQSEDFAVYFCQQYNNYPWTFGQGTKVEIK , what is its reported Top (MFI)?
Result: 12100

Problem: Reported Top (MFI), binder 5D6B10.Z2 (antibody, V domains shown) VH: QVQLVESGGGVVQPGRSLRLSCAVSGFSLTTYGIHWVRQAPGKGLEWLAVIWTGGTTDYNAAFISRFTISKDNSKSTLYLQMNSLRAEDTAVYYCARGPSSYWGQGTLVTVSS VL: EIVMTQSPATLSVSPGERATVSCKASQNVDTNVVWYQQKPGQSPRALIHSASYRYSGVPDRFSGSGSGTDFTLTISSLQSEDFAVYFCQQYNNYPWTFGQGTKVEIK : ____
Result: 14900

Problem: Entry 124H4D11.p2.z12 (antibody, V domains shown) VH: QVPLVQSGAEVVKPGASVKLSCKASGFNIKDYYMHWVKQAPGQGLEWIGWIDPENDDTEYDPKFQGRATMTADTSTSTAYLELSSLRSEDTAVYYCNARYYAFDYWGQGTTVTVSS VL: DVLMTQSPSSLSASVGDRVTITCRSSQSIVHSNANTYLEWYLQKPGKSPKLLIYKVSNRFSGVPDRFSGSGSGTEFTLTISSVQPEDFAVYYCFQGSQVPPTFGQGTRLEIK : reported Top (MFI) = ?
Result: 7570
